molecular target: Histone deacetylase 4 (Homo sapiens, UniProt P56524)
Sequence (P56524 whole entry): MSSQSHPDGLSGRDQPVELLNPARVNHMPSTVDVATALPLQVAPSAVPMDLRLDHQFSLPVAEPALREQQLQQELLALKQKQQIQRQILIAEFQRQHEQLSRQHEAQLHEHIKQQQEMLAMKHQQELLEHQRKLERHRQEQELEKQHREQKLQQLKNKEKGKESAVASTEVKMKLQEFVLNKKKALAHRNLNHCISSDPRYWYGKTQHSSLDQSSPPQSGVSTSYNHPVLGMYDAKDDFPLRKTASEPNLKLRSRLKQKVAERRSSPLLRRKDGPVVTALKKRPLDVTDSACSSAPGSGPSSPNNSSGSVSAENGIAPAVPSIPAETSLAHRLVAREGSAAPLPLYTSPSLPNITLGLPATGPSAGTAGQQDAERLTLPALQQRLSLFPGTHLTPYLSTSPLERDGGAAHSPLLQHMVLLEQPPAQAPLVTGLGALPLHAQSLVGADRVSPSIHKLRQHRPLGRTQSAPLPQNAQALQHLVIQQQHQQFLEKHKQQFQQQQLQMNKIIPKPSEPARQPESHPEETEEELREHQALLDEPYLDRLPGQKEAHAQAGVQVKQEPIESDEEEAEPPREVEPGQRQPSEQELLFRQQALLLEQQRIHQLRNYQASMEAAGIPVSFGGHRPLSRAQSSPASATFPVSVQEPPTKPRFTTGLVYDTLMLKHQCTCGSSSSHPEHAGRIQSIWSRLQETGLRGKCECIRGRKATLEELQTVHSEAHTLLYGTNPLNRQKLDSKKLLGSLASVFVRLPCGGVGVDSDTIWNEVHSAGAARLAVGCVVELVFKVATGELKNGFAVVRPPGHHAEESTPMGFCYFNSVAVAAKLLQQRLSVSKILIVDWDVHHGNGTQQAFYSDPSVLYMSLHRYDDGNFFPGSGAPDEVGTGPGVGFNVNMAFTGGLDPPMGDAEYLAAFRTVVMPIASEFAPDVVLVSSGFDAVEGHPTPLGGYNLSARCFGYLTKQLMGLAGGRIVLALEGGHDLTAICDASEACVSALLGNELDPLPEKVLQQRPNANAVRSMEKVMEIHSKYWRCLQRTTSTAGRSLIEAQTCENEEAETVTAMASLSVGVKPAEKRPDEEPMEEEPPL

[
  {
    "molecule_smiles": "CCOP(=O)(CNCc1ccc(C(=O)Nc2cc(-c3cccs3)ccc2N)cc1)OCC",
    "IC50": "> 50 µM"
  }
]

###

Listed here: items and their measured AUC.
experiment: AUC in mouse at 150 mg/kg, po; type: ADME, organism-based, Plasma; parameters: dose 150 mg/kg, route oral; conditions: whole blood

[
  {
    "compound": "CC(C)P(=O)(Cc1ccc(C(=O)Nc2cc(-c3cccs3)ccc2N)cc1)C(C)C",
    "AUC (µM·h)": 1.3
  },
  {
    "compound": "CP(=O)(Cc1ccc(C(=O)Nc2cc(-c3cccs3)ccc2N)cc1)OCc1cccnc1 (stereo not given)",
    "AUC (µM·h)": 16
  },
  {
    "compound": "CCOP(C)(=O)c1ccc(C(=O)Nc2cc(-c3cccs3)ccc2N)cc1 (stereo not given)",
    "AUC (µM·h)": 44
  },
  {
    "compound": "COP(=O)(c1ccccc1)c1ccc(C(=O)Nc2cc(-c3cccs3)ccc2N)cc1 (stereo not given)",
    "AUC (µM·h)": 12
  },
  {
    "compound": "COP(C)(=O)c1ccc(C(=O)Nc2cc(-c3cccs3)ccc2N)cc1 (stereo not given)",
    "AUC (µM·h)": 60
  }
]
